Test system: Bacillus subtilis
Assay Comment: cleaved RNA product abundance (RNA/gDNA barcode ratio) relative to median wild-type variant (ratio to wild type); higher = more accumulation of the downstream cleavage product
Stated Conditions: experiment (reporter, strain, medium): exp 4a: truncated aprE reporter, strain BJT201 with 2% xylose (RNase J1 expressed); cleavage site: cggR-gapA (positions -7 to +36 mutated)

[
  {
    "Seq Text": "ACAGACGAAGGAGCCGCAAAGAAGTTATTAAGGGATGAATAATCACTCAATATAAATACCTCTCACTTATTTAAA",
    "Assayed Target": "Bacillus subtilis",
    "cleaved RNA product abundance": 0.061
  },
  {
    "Seq Text": "ACAGACGAAGGAGCCGCAAAGAAGTTAATAAGGGATGAATAATCCCTCAATATACATATCTCTCACTTATTTAAA",
    "Assayed Target": "Bacillus subtilis",
    "cleaved RNA product abundance": 0.313
  },
  {
    "Seq Text": "ACAGACGAAGGAGCCGCAATGAAGTTATTAAGGGCTGAATAATCCCTCAATATAAATATCTCTCACTTATTTAAA",
    "Assayed Target": "Bacillus subtilis",
    "cleaved RNA product abundance": 0.472
  },
  {
    "Seq Text": "ACAGACGAAGGAGCCGCAAAGAAGTTATTAAGGGATTAATAATCACTCAATATAAATATCTCTCACTTATTTAAA",
    "Assayed Target": "Bacillus subtilis",
    "cleaved RNA product abundance": 0.129
  },
  {
    "Seq Text": "ACAGACGAAGGAGCCGCAAATAAGTTATTAAGGGATGAATAATCCCTCAATATAAACATCTCTCACTTATTTAAA",
    "Assayed Target": "Bacillus subtilis",
    "cleaved RNA product abundance": 0.822
  },
  {
    "Seq Text": "ACAGACGAAGGAGCCGCAAAGAAATTATTAAGGGATGAATAATCCCCCAATATAAATATCTCTCACTTATTTAAA",
    "Assayed Target": "Bacillus subtilis",
    "cleaved RNA product abundance": 0.465
  },
  {
    "Seq Text": "ACAGACGAAGGAGCCGCAAAGATGTTATTAAGGGATTAATAATCCCTCAATATAAATATCTCTCACTTATTTAAA",
    "Assayed Target": "Bacillus subtilis",
    "cleaved RNA product abundance": 0.703
  }
]
